experiment: yeast display, Sf9 membrane polyspecificity reagent, FACS + sequencing; frameworks hold sequencing errors

input-sequence	polyreactivity (PSR sort gate)
QVQLVESGGGLVQAGGSLRLSCAASGGTFWIYAMGWYRQAPGKERELVAGITTSGATTYYADSVKGRFTISRDNAKNTVYLQMNSLKPEDTAVYYCAAVIRPRYYQVRPRYDYWGQGTQVTVSS	low polyreactivity
QVQLVESGGGLVQAGGSLRISCAASGSTFAGNAMGWYRQAPGKERELVAAIDSSTGSTYYADSVKGRFTISRDNAKNTVYLQMNSLKPEDTAVYYCNKTSFLVKLDYWGQGTQVTVSS	low polyreactivity
QVQLVESGGGLVQAGGSLRLSCAASGIICWWNTMGWYRQAPGKERELVATITRGGSTYYADSVKGRFTISRDNAKNTVYLQMNSLKPEDTAVYYCNAVQYKYLAKSYDYWGQGTQVTVSS	low polyreactivity
QVQLVESGGALVQAGGSIRLSCAASGFISRKNALGWYSQAPGKERELVATITKSGDTTYYADSVKGRFTISRDNAKNTVYLQMNSLKPEETAVYYCAAPLYYIGSWDYYVRYIYDYWGQGTQVTVSS	low polyreactivity
